Reference for the values: ChEMBL document CHEMBL1146374

# Test system: Staphylococcus aureus
# assayMethodText: Antibacterial activity against Staphylococcus aureus at 50 to 100 uM after 24 hrs by well diffusion method
# Type: functional
List of zone of inhibition values.
Could you give me the number in mm? Just the number is fine.

| smilesInput | valueUnits | zone of inhibition |
| --- | --- | --- |
| COC(=O)CSc1nnc(Cc2csc(NC(=O)c3ccccc3)n2)n1NC(=O)c1ccccc1 | mm | 22 |
| Nn1c(S)nnc1CSc1nnc(Cc2csc(NCCC(=O)O)n2)n1NC(=O)c1ccccc1 | mm | 14 |
| CC(=O)Nc1nc(Cc2nnc(SCC#N)n2NC(=O)c2ccccc2)cs1 | mm | 22 |

Shifting focus to the compound that follows.
## Input Which zone of inhibition is listed for NNC(=O)CSc1nnc(Cc2csc(NC(=O)CCl)n2)n1NC(=O)c1ccccc1 ?
## Output 16

---

List of zone of inhibition values.
# System: Staphylococcus aureus
# assayMethodText: Antibacterial activity against Staphylococcus aureus at 50 to 100 uM after 24 hrs by well diffusion method
# Assay type: functional
Just the number please, in mm, no unit attached.

## Input Need zone of inhibition, item CC(=O)Nc1nc(Cc2nnc(SCC(=O)NN)n2NC(=O)c2ccccc2)cs1
## Output 32

## Input Quick one: zone of inhibition of CC(=O)Nc1nc(Cc2nnc(S)n2N)cs1 ?
## Output 18

## Input Bench note: what zone of inhibition did Nn1c(S)nnc1CSc1nnc(Cc2csc(NC(=O)CCl)n2)n1NC(=O)c1ccccc1 show?
## Output 12

## Input Find the recorded zone of inhibition belonging to CC(=O)NNC(=O)CSc1nnc(Cc2csc(NC(=O)CCl)n2)n1NC(=O)c1ccccc1 and report it.
## Output 24

## Input What zone of inhibition value was documented for this compound, NNC(=O)CSc1nnc(Cc2csc(NC(=O)c3ccccc3)n2)n1NC(=O)c1ccccc1 ?
## Output 33

## Input I'd like to know its zone of inhibition. The compound in question is CC(=O)Nc1nc(Cc2nnc(S)n2NC(=O)c2ccccc2)cs1
## Output 16

## Input Would you kindly share the measured zone of inhibition for COC(=O)CSc1nnc(Cc2csc(NC(=O)CCl)n2)n1NC(=O)c1ccccc1 ?
## Output 24

## Input Sample O=C(Nc1nc(Cc2nnc(SCSc3nnc(Cc4csc(NC(=O)c5ccccc5)n4)n3NC(=O)c3ccccc3)n2NC(=O)c2ccccc2)cs1)c1ccccc1 — what was its zone of inhibition?
## Output 11

## Input State the recorded zone of inhibition for this entry: NNC(=O)CSc1nnc(Cc2csc(NCCC(=O)O)n2)n1NC(=O)c1ccccc1
## Output 20

---

# System: Escherichia coli
# assayMethodText: Antibacterial activity against Escherichia coli at 50 to 100 uM after 24 hrs by well diffusion method
# Type: functional
propertyMeasured: zone of inhibition (mm)
Quick reminder: number only, in mm, skip the unit.

## Input Field request: zone of inhibition | item: COC(=O)CSc1nnc(Cc2csc(NC(C)=O)n2)n1NC(=O)c1ccccc1
## Output 24

---

# reported zone of inhibition; entries follow
# System: Escherichia coli
# assayMethodText: Antibacterial activity against Escherichia coli at 50 to 100 uM after 24 hrs by well diffusion method
# Format: functional
Numbers only here, please. The scale is mm.

Examples with answers:
| smilesInput | zone of inhibition [mm] |
| --- | --- |
| N#CCSc1nnc(Cc2csc(NCCC(=O)O)n2)n1NC(=O)c1ccccc1 | 20 |
| O=C(Nc1nc(Cc2nnc(S)n2NC(=O)c2ccccc2)cs1)c1ccccc1 | 10 |

Here is another compound to look at.
## Input Query: zone of inhibition; subject: CC(=O)NNC(=O)CSc1nnc(Cc2csc(NC(=O)CCl)n2)n1NC(=O)c1ccccc1
## Output 14

---

# Tested on: Escherichia coli
# assayMethodText: Antibacterial activity against Escherichia coli at 50 to 100 uM after 24 hrs by well diffusion method
# Format: functional
Let's look at some compounds and their measured zone of inhibition.
Record the result as a number with its unit.

| smilesInput | assayedTarget | zone of inhibition |
| --- | --- | --- |
| NNC(=O)CSc1nnc(Cc2csc(NC(=O)CCl)n2)n1NC(=O)c1ccccc1 | Escherichia coli | 12 mm |
| COC(=O)CSc1nnc(Cc2csc(NC(=O)CCl)n2)n1NC(=O)c1ccccc1 | Escherichia coli | 20 mm |
| O=C(O)CCNc1nc(Cc2nnc(S)n2NC(=O)c2ccccc2)cs1 | Escherichia coli | 15 mm |
| NNC(=O)CSc1nnc(Cc2csc(NC(=O)c3ccccc3)n2)n1NC(=O)c1ccccc1 | Escherichia coli | 30 mm |

# ---- query compound ----
## Input Suppose we examine the compound Nn1c(S)nnc1Cc1csc(NC(=O)CCl)n1 ; what zone of inhibition value has been reported?
## Output 14 mm
